- Assay Notes: LDH cytotoxic activity assay, HT29
- Type: cell-based
- Particulars: human, HT29 cells, HT29, 100 μg/mL
Each item that follows carries a reported cytotoxicity at 24 h, 100 μg/mL.
Write the number in % without appending the unit.

The examples below pair each entry with its known result.
>>> result_number("CC(=O)OC[C@H]1O[C@@H](Nc2nc(-c3cccnc3)cc(-c3ccccc3C)n2)[C@H](OC(C)=O)[C@@H](OC(C)=O)[C@@H]1OC(C)=O [Compound 11]")
90.6
>>> result_number("Cc1ccccc1-c1cc(-c2ccccn2)nc(N[C@@H]2O[C@H](CO)[C@@H](O)[C@H](O)[C@H]2O)n1 [Compound 1]")
83.7

stdin: Reported cytotoxicity at 24 h, 100 μg/mL for Cc1cccc(-c2cc(-c3cccnc3)nc(N[C@@H]3O[C@H](CO)[C@@H](O)[C@H](O)[C@H]3O)n2)c1 [Compound 5] : what is it?
stdout: 96.8

stdin: I am curious: what cytotoxicity at 24 h, 100 μg/mL value has been reported for CC(=O)OC[C@H]1O[C@@H](Nc2nc(-c3ccc(C)cc3)cc(-c3cccnc3)n2)[C@H](OC(C)=O)[C@@H](OC(C)=O)[C@@H]1OC(C)=O [Compound 17] ?
stdout: 75.7

stdin: Please give the measured cytotoxicity at 24 h, 100 μg/mL for this compound: Cc1ccccc1-c1cc(-c2cccnc2)nc(N[C@@H]2O[C@H](CO)[C@@H](O)[C@H](O)[C@H]2O)n1 [Compound 2]
stdout: 94.6

stdin: Could you share which cytotoxicity at 24 h, 100 μg/mL value was measured for CC(=O)OC[C@H]1O[C@@H](Nc2nc(-c3cccc(C)c3)cc(-c3ccccn3)n2)[C@H](OC(C)=O)[C@@H](OC(C)=O)[C@@H]1OC(C)=O [Compound 13] ?
stdout: 79.2

stdin: // query cytotoxicity at 24 h, 100 μg/mL value for entry CC(=O)OC[C@H]1O[C@@H](Nc2nc(-c3ccncc3)cc(-c3ccc(C)cc3)n2)[C@H](OC(C)=O)[C@@H](OC(C)=O)[C@@H]1OC(C)=O [Compound 18]
stdout: 82.8

* * *

- Assay Notes: LDH cytotoxic activity assay, A549
- Format: cell-based
- Particulars: human, A549 cells, A549, 75 μg/mL
Here the recorded cytotoxicity at 24 h, 75 μg/mL is given for each entry.

Previously resolved entries follow.
>>> result("Cc1cccc(-c2cc(-c3cccnc3)nc(N[C@@H]3O[C@H](CO)[C@@H](O)[C@H](O)[C@H]3O)n2)c1")
"51.5%"
>>> result("Cc1ccc(-c2cc(-c3ccncc3)nc(N[C@@H]3O[C@H](CO)[C@@H](O)[C@H](O)[C@H]3O)n2)cc1")
"48.4%"
>>> result("Cc1cccc(-c2cc(-c3ccccn3)nc(N[C@@H]3O[C@H](CO)[C@@H](O)[C@H](O)[C@H]3O)n2)c1")
"61.7%"
>>> result("Cc1ccc(-c2cc(-c3cccnc3)nc(N[C@@H]3O[C@H](CO)[C@@H](O)[C@H](O)[C@H]3O)n2)cc1")
"47.4%"

stdin: # query: cytotoxicity at 24 h, 75 μg/mL of entry "Cc1ccc(-c2cc(-c3ccccn3)nc(N[C@@H]3O[C@H](CO)[C@@H](O)[C@H](O)[C@H]3O)n2)cc1"
stdout: 27.4%

stdin: // returns reported cytotoxicity at 24 h, 75 μg/mL for input "Cc1cccc(-c2cc(-c3ccncc3)nc(N[C@@H]3O[C@H](CO)[C@@H](O)[C@H](O)[C@H]3O)n2)c1"
stdout: 48.1%

* * *

- Assay Notes: LDH cytotoxic activity assay, FL
- Assay type: cell-based
- Particulars: human, FL cells (normal cells), FL, 75 μg/mL
cytotoxicity at 24 h, 75 μg/mL listing for selected molecules.
Answer in %, number only, no unit symbol.

>>> result_number("Cc1cccc(-c2cc(-c3ccncc3)nc(N[C@@H]3O[C@H](CO)[C@@H](O)[C@H](O)[C@H]3O)n2)c1")
50.9
>>> result_number("Cc1ccc(-c2cc(-c3ccccn3)nc(N[C@@H]3O[C@H](CO)[C@@H](O)[C@H](O)[C@H]3O)n2)cc1")
46.5
>>> result_number("Cc1cccc(-c2cc(-c3cccnc3)nc(N[C@@H]3O[C@H](CO)[C@@H](O)[C@H](O)[C@H]3O)n2)c1")
62.6
>>> result_number("Cc1ccc(-c2cc(-c3cccnc3)nc(N[C@@H]3O[C@H](CO)[C@@H](O)[C@H](O)[C@H]3O)n2)cc1")
41
>>> result_number("Cc1ccc(-c2cc(-c3ccncc3)nc(N[C@@H]3O[C@H](CO)[C@@H](O)[C@H](O)[C@H]3O)n2)cc1")
60.6

Now consider the entry below.
stdin: # get_value(readout='cytotoxicity at 24 h, 75 μg/mL', item= "Cc1cccc(-c2cc(-c3ccccn3)nc(N[C@@H]3O[C@H](CO)[C@@H](O)[C@H](O)[C@H]3O)n2)c1" )
stdout: 48.3

* * *

- Assay Notes: LDH cytotoxic activity assay, C6
- Format: cell-based
- Particulars: rat, C6 glioma cells, C6, 25 μg/mL
Outcome Measure: cytotoxicity at 24 h, 25 μg/mL

>>> result("Cc1cccc(-c2cc(-c3ccncc3)nc(N[C@@H]3O[C@H](CO)[C@@H](O)[C@H](O)[C@H]3O)n2)c1")
"27.9%"
>>> result("Cc1cccc(-c2cc(-c3ccccn3)nc(N[C@@H]3O[C@H](CO)[C@@H](O)[C@H](O)[C@H]3O)n2)c1")
"22.1%"

Continue with the compound presented below.
stdin: I am curious: what cytotoxicity at 24 h, 25 μg/mL value has been reported for "CC(=O)OC[C@H]1O[C@@H](Nc2nc(-c3ccncc3)cc(-c3cccc(C)c3)n2)[C@H](OC(C)=O)[C@@H](OC(C)=O)[C@@H]1OC(C)=O" ?
stdout: 20.4%

* * *

- Assay Notes: LDH cytotoxic activity assay, C6
- Type: cell-based
- Particulars: rat, C6 glioma cells, C6, 75 μg/mL
Outcome Measure: cytotoxicity at 24 h, 75 μg/mL (%)
Output spec: scalar in %, unitless text.

>>> result_number("CC(=O)OC[C@H]1O[C@@H](Nc2nc(-c3ccccn3)cc(-c3ccccc3C)n2)[C@H](OC(C)=O)[C@@H](OC(C)=O)[C@@H]1OC(C)=O")
77.1

stdin: Field request: cytotoxicity at 24 h, 75 μg/mL | item: "CC(=O)OC[C@H]1O[C@@H](Nc2nc(-c3ccncc3)cc(-c3cccc(C)c3)n2)[C@H](OC(C)=O)[C@@H](OC(C)=O)[C@@H]1OC(C)=O"
stdout: 77.1

stdin: Form field: reported cytotoxicity at 24 h, 75 μg/mL of "Cc1ccccc1-c1cc(-c2ccccn2)nc(N[C@@H]2O[C@H](CO)[C@@H](O)[C@H](O)[C@H]2O)n1"
stdout: 72.1

stdin: Query: cytotoxicity at 24 h, 75 μg/mL; subject: "CC(=O)OC[C@H]1O[C@@H](Nc2nc(-c3cccnc3)cc(-c3cccc(C)c3)n2)[C@H](OC(C)=O)[C@@H](OC(C)=O)[C@@H]1OC(C)=O"
stdout: 70.2

stdin: Requested read-out: cytotoxicity at 24 h, 75 μg/mL. Entry: "Cc1cccc(-c2cc(-c3cccnc3)nc(N[C@@H]3O[C@H](CO)[C@@H](O)[C@H](O)[C@H]3O)n2)c1"
stdout: 62.6

stdin: Could you share which cytotoxicity at 24 h, 75 μg/mL value was measured for "Cc1cccc(-c2cc(-c3ccncc3)nc(N[C@@H]3O[C@H](CO)[C@@H](O)[C@H](O)[C@H]3O)n2)c1" ?
stdout: 63.1

* * *

- Test system: HeLa
Outcome Measure: GI50

Use the examples below as a reference point.
>>> result("Cc1ccc(-c2cc(-c3ccccn3)nc(N[C@@H]3O[C@H](CO)[C@@H](O)[C@H](O)[C@H]3O)n2)cc1 [Compound 7]")
"7.17 µg/mL"
>>> result("Cc1ccccc1-c1cc(-c2cccnc2)nc(N[C@@H]2O[C@H](CO)[C@@H](O)[C@H](O)[C@H]2O)n1 [Compound 2]")
"> 500 µg/mL"

stdin: # get_value(readout='GI50', item= CC(=O)OC[C@H]1O[C@@H](Nc2nc(-c3cccnc3)cc(-c3ccccc3C)n2)[C@H](OC(C)=O)[C@@H](OC(C)=O)[C@@H]1OC(C)=O [Compound 11] )
stdout: > 500 µg/mL

stdin: Quick one: GI50 for CC(=O)OC[C@H]1O[C@@H](Nc2nc(-c3ccncc3)cc(-c3cccc(C)c3)n2)[C@H](OC(C)=O)[C@@H](OC(C)=O)[C@@H]1OC(C)=O [Compound 15] ?
stdout: > 500 µg/mL

stdin: Fill in the blank: the reported GI50 of CC(=O)OC[C@H]1O[C@@H](Nc2nc(-c3cccnc3)cc(-c3cccc(C)c3)n2)[C@H](OC(C)=O)[C@@H](OC(C)=O)[C@@H]1OC(C)=O [Compound 14] is ____.
stdout: > 500 µg/mL

stdin: Reported GI50, molecule Cc1ccccc1-c1cc(-c2ccncc2)nc(N[C@@H]2O[C@H](CO)[C@@H](O)[C@H](O)[C@H]2O)n1 [Compound 3] : ____
stdout: > 500 µg/mL
